# assayed target: Mcl-1/Bim interaction, recombinant human Mcl-1 (171-327) (Homo sapiens)
# Construct: made in house
# Sequence (Q07820 171-327): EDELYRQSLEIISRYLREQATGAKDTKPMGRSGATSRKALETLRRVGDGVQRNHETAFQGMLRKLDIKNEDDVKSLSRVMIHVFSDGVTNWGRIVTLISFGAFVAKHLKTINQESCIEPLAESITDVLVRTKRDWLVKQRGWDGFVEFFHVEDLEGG
# assay comment: Cell free Mcl-1: Bim Affinity Assay (Mcl-1 HTRF)
# Assay type: binding
# experimental context: TR-FRET, 0.1 nM Mcl-1 (171-327), 0.05 nM biotin-Bim (51-76)
Field: IC50. Provide a value for each of the compounds that follow.
Kindly answer with a numeric value in pM, unit omitted.

Data request: Field request: IC50 | item: CC[C@@H]1CC/C=C\[C@@H](NC(=O)C(C)C)[C@@H]2CC[C@H]2CN2C[C@@]3(CCCc4cc(Cl)ccc43)COc3ccc(cc32)C(=O)NS1(=O)=O
Data returned: 18000

Data request: Field request: IC50 | item: N#C[C@@H]1CC/C=C\[C@H](O)[C@@H]2CC[C@H]2CN2C[C@@]3(CCCc4cc(Cl)ccc43)COc3ccc(cc32)C(=O)NS1(=O)=O (single isomer, unassigned)
Data returned: 1220

Data request: Field request: IC50 | item: CC[C@@H]1CC/C=C/[C@H](OCC(=O)NCCN2CCOCC2)[C@@H]2CC[C@H]2CN2C[C@@]3(CCCc4cc(Cl)ccc43)COc3ccc(cc32)C(=O)NS1(=O)=O
Data returned: 448

Data request: Field request: IC50 | item: O=C1NS(=O)(=O)[C@H](C2CC2)CC/C=C/[C@H](O)[C@@H]2CC[C@H]2CN2C[C@@]3(CCCc4cc(Cl)ccc43)COc3ccc1cc32 (single isomer, unassigned) [Example 148]
Data returned: 285

Data request: Field request: IC50 | item: CCN1CC/C=C/[C@H](OCC(=O)O)[C@@H]2CC[C@H]2CN2C[C@@]3(CCCc4cc(Cl)ccc43)COc3ccc(cc32)C(=O)NS1(=O)=O
Data returned: 115

Data request: Field request: IC50 | item: O=C1NS(=O)(=O)[C@H](C(F)(F)F)CCCC[C@H](O)[C@@H]2CC[C@H]2CN2C[C@@]3(CCCc4cc(Cl)ccc43)COc3ccc1cc32 (single isomer, unassigned)
Data returned: 996

Data request: Field request: IC50 | item: CC(=O)O[C@@H]1/C=C/C[C@H](C)[C@@H](C)S(=O)(=O)NC(=O)c2ccc3c(c2)N(C[C@@H]2CC[C@H]21)C[C@@]1(CCCc2cc(Cl)ccc21)CO3
Data returned: 1070

Data request: Field request: IC50 | item: C[C@@H]1[C@@H](C)C/C=C/[C@H](OCC(=O)N2CC[C@@H](O)C2)[C@@H]2CC[C@H]2CN2C[C@@]3(CCCc4cc(Cl)ccc43)COc3ccc(cc32)C(=O)NS1(=O)=O
Data returned: 138

Data request: Field request: IC50 | item: COCCO[C@H]1/C=C/C[C@H](C)CS(=O)(=O)NC(=O)c2ccc3c(c2)N(C[C@@H]2CC[C@H]21)C[C@@]1(CCCc2cc(Cl)ccc21)CO3 (single isomer, unassigned)
Data returned: 403

Data request: Field request: IC50 | item: CCN1CC/C=C\[C@H](O)[C@@H]2CC[C@H]2CN2C[C@@]3(CCCc4cc(Cl)ccc43)COc3ccc(cc32)C(=O)NS1(=O)=O (single isomer, unassigned)
Data returned: 1920

Data request: Field request: IC50 | item: C[C@H]1C/C=C/[C@H](O)[C@@H]2CC[C@H]2CN2C[C@@]3(CCCc4cc(Cl)ccc43)COc3ccc(cc32)C(=O)NS(=O)(=O)N1CC1CC1
Data returned: 800

Data request: Field request: IC50 | item: COCCOCCO[C@H]1/C=C/C[C@H](C)[C@@H](C)S(=O)(=O)NC(=O)c2ccc3c(c2)N(C[C@@H]2CC[C@H]21)C[C@@]1(CCCc2cc(Cl)ccc21)CO3
Data returned: 303

Data request: Field request: IC50 | item: COC[C@H]1[C@@H](C)C/C=C\[C@H](O)[C@@H]2CC[C@H]2CN2C[C@@]3(CCCc4cc(Cl)ccc43)COc3ccc(cc32)C(=O)NS1(=O)=O (single isomer, unassigned)
Data returned: 263

Data request: Field request: IC50 | item: C[C@@H]1[C@@H](C)C/C=C/[C@H](OCCN2CCC(F)(F)CC2)[C@@H]2CC[C@H]2CN2C[C@@]3(CCCc4cc(Cl)ccc43)COc3ccc(cc32)C(=O)NS1(=O)=O
Data returned: 2970

Data request: Field request: IC50 | item: CC[C@@H]1CC/C=C/[C@H](OCC(=O)N2CCC2)[C@@H]2CC[C@H]2CN2C[C@@]3(CCCc4cc(Cl)ccc43)COc3ccc(cc32)C(=O)NS1(=O)=O
Data returned: 336
